- Assayed Target: cyclin B/CDK1 enzyme (Homo sapiens, UniProt P06493)
- Construct: purchased New England BioLabs; host or cells: Sf9 insect cells, recombinant baculovirus
- Sequence (P06493 whole entry): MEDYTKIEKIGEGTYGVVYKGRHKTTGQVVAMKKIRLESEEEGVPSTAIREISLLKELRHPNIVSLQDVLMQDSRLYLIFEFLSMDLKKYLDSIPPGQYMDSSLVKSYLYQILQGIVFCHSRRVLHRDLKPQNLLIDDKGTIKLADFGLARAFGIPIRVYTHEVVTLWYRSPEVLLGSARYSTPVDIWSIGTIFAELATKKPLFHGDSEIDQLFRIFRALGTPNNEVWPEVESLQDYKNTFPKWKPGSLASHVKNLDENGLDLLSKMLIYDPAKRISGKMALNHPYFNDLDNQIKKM
- Sequence (P14635 whole entry partner): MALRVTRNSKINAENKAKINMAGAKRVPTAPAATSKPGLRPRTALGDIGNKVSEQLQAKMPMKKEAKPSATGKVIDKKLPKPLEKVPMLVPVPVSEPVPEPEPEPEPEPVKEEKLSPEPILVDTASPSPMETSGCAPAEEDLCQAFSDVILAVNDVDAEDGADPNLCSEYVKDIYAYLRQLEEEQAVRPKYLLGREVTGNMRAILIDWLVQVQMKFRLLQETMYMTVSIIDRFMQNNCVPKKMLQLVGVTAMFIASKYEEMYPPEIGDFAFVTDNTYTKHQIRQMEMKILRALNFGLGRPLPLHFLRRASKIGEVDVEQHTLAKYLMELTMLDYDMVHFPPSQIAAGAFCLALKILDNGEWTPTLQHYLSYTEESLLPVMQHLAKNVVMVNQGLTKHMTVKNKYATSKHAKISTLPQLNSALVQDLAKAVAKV
- Test Name: CDK1 ELISA kinase assay (phospho-Rb ser 795 detection)
- Type: biochemical
- Condition Description: In Vitro Enzyme Assays, read-out: CDK1 IC50
pIC50: −log10 of the molar value.
Quick list: pIC50 per entry.

# annotated cases, reported pIC50 shown
compound=CN1CCN(c2ccc(N/C=C3\C(=O)NC(=O)c4ccc(-c5ccoc5)cc43)nc2)CC1 reported_measurement="< 4.30"
compound=COC[C@@H]1CCCN1Cc1ccc(N/C=C2\C(=O)NC(=O)c3ccc(-c4ccc(F)cc4)cc32)cc1 reported_measurement="< 4.30"

Could you now consider this next compound?
If you can, please state the reported pIC50 value of CN1CCN(c2ccc(N/C=C3\C(=O)NC(=O)c4ccc(Br)cc43)cc2)CC1 .
< 4.30
